Reported % Inhibition (50 μM) Bcl-XL by item:
- Subject of test: Bcl-XL (Homo sapiens, UniProt Q07817)
- Sequence (Q07817 whole entry, species assumed): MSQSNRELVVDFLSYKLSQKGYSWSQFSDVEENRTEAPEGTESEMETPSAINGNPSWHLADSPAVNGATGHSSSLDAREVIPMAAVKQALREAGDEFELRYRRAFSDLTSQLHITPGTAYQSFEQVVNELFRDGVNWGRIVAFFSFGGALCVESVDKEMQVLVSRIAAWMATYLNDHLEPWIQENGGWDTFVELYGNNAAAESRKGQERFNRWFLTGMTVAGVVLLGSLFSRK
- Method description: Inhibition of Bcl-XL (disruption of Bcl-XL/Bim interaction)
- Assay type: binding
- Measurement context: compound at 50 μM
Please give a number only; it is taken to be in %.

# annotated cases, reported % Inhibition (50 μM) Bcl-XL shown
# query: % Inhibition (50 μM) Bcl-XL of entry O=C(Cn1c2ccccc2c2ccccc21)NS(=O)(=O)c1ccc(CN(CCSc2ccccc2)Cc2c(F)cccc2Cl)cc1 [SZ15TA15]
8.8

And CN(CCc1ccccc1)Cc1ccc(S(=O)(=O)NC(=O)c2ccc(C(c3c[nH]c4ccccc34)c3c[nH]c4ccccc34)cc2)cc1 [SZ2TA31] ?
9.4

And Cn1cc(C(=O)c2cccs2)c2cc(C(=O)NS(=O)(=O)CCN(CCSc3ccccc3)Cc3ccc4c(c3)OCO4)ccc21 [SZ28TA45] ?
34.6

And COc1cccc(CN(CCSc2ccccc2)Cc2ccc(S(=O)(=O)NC(=O)c3ccc(-c4ccccn4)cc3)cc2)c1 [SZ17TA25] ?
54.5

And COc1cc(OC)cc(C(=O)NS(=O)(=O)c2ccc(CN(CCSc3ccccc3)Cc3c(F)cccc3Cl)cc2)c1 [SZ15TA5] ?
38.4

More entries:
# query: % Inhibition (50 μM) Bcl-XL of entry O=C(NS(=O)(=O)c1ccc(NCCSc2ccccc2)c([N+](=O)[O-])c1)c1ccc(CCc2ccccn2)cc1 [SZATA17]
90.6

---

- Subject of test: Bcl-XL (Homo sapiens, UniProt Q07817)
- Method description: Inhibition of Bcl-XL (disruption of Bcl-XL/Bim interaction)
- Type: binding
- Measurement context: compound at 50 μM
- Experimental: In a subsequent study, a structurally diverse library of forty five thio acids and thirty eight sulfonyl azides (identified above) was screened in parallel against Mcl-1 and Bcl-XL using the above mentioned approach. Several potential hit combinations were identified (Table 3). […] After the reaction was completed (approximately one minute, monitored by LC-MS) water (200 μL) was added and the pH was adjusted to 7.0 using 1M HCl solution. […]
Reported endpoint: inhibition at 50 µM (%)
Please give a number only; it is taken to be in %.

# query: inhibition at 50 µM of entry `O=C(Cn1c2ccccc2c2ccccc21)NS(=O)(=O)c1ccc(CN(CCSc2ccccc2)Cc2ccc3c(c2)OCO3)cc1`
21.4

And `[N-]=[N+]=NS(=O)(=O)c1ccc(CN(CCSc2ccccc2)Cc2ccc(S(=O)(=O)NC(=O)c3ccc(CCc4ccccn4)cc3)cc2)cc1` ?
63.5

Now, please, on to the next compound.
# query: inhibition at 50 µM of entry `Cc1noc(C)c1-c1ccc(S(=O)(=O)NC(=O)c2ccc(CN3C(=O)C(c4ccc(F)cc4F)=C(c4ccc(F)cc4F)C3=O)cc2)cc1`
59.4

---

- Subject of test: Mcl-1 (Homo sapiens)
- Sequence (Q07820 whole entry, species assumed): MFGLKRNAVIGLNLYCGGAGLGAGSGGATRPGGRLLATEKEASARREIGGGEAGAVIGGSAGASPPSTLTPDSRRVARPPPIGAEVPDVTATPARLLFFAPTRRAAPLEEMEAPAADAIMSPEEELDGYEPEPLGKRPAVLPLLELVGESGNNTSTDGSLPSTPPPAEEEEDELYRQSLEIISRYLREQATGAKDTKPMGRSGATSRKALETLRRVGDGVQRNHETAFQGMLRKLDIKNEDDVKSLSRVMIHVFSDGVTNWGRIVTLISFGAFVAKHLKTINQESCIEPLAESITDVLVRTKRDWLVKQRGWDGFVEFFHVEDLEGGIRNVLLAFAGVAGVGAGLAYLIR
- Method description: Inhibition of Mcl-1 (disruption of Mcl-1/Bim interaction)
- Type: binding
- Measurement context: compound at 50 μM
Reported endpoint: % Inhibition (50 μM) Mcl-1 (%)
Please give a number only; it is taken to be in %.

# query: % Inhibition (50 μM) Mcl-1 of entry `CCOc1ccc(-c2ccc3c(c2)c(C(=O)NS(=O)(=O)c2ccc(CN4CCN(c5ccccc5)CC4)cc2)cn3C)cc1F`
21.5

And `O=C(NS(=O)(=O)c1ccc(-c2ccc(Oc3ccccc3)cc2)cc1)c1ccc(CCc2ccccn2)cc1` ?
89.2

Now, please, on to the next compound.
# query: % Inhibition (50 μM) Mcl-1 of entry `NS(=O)(=O)c1ccc(CN(CCSc2ccccc2)Cc2ccc(S(=O)(=O)NC(=O)c3ccc(-c4ccccn4)cc3)cc2)cc1`
93.6

meta.source: patent US10551389B2
